- Tested on: LB831-BLC (Bladder Carcinoma);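 note: after 72 h of two-drug dosing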
- test.method.notes: Bliss excess, mean over the matrix (fraction); higher = more synergy
reported.metric: Bliss excess
Reply with just the number.

[Q] Identify measured Bliss excess associated with NC1(C(=O)N[C@@H](CCO)c2ccc(Cl)cc2)CCN(c2ncnc3[nH]ccc23)CC1 [Capivasertib] + CC(C)n1c(=O)n(C)c2cnc3cc(F)c(-c4ccc(OCCCN5CCCCC5)nc4)cc3c21 [AZD1390] (first compound max 10 µM, 7x7, partner max 0.3 µM)
[A] -0.0383

[Q] Identify measured Bliss excess associated with COc1nnc2ccc(N3CCC(c4ccc(OCCN5CCN(C)C(=O)[C@H]5C)cc4)CC3)nn12 [AZD5153] + CCN(CCO)CCCOc1ccc2c(Nc3cc(CC(=O)Nc4cccc(F)c4)[nH]n3)ncnc2c1 [AZD2811] (first compound max 1 µM, 7x7, partner max 1 µM)
[A] -0.0647

[Q] Identify measured Bliss excess associated with C[C@@H](c1ccc2nccn2c1)n1nnc2ncc(-c3cnn(C)c3)nc21 [Savolitinib] + CC1(C)CCC(CN2CCN(c3ccc(C(=O)NS(=O)(=O)c4ccc(NCC5CCOCC5)c([N+](=O)[O-])c4)c(Oc4cnc5[nH]ccc5c4)c3)CC2)=C(c2ccc(Cl)cc2)C1 [Venetoclax] (first compound max 1 µM, 7x7, partner max 1 µM)
[A] -0.0978
